assay: in vitro; conditions: guinea pig, microsomes
measurementKind: half-life
Output should be the measured figure followed by the unit it is expressed in.

Prompt: Output half-life of COc1ccc2nc3cc(Cl)ccc3c(Nc3cc(CN4CCCC4)c(O)c(CN4CCCC4)c3)c2n1
Response: 44.4 min

###

assay: in vitro; conditions: mouse
measurementKind: CC50

Prompt: Output CC50 of COc1ccc2nc3cc(Cl)ccc3c(Nc3cc(CN4CCCC4)c(O)c(CN4CCCC4)c3)c2n1
Response: > 40 µM

###

test: in vitro; conditions: African green monkey
measurementKind: CC50
Output should be the measured figure followed by the unit it is expressed in.

Prompt: Output CC50 of COc1ccc2nc3cc(Cl)ccc3c(Nc3cc(CN4CCCC4)c(O)c(CN4CCCC4)c3)c2n1
Response: 7.5 µM
